# EXPERIMENT SUMMARY: NCI Yeast Anticancer Drug Screen. Data for the mlh1 rad18 strain (AID 175)
# CONDITION NOTES: S. cerevisiae mlh1 rad18 strain growth inhibition; at 5.0 µM (retest, dose inferred, filed as 0.5); hits give high values
Compounds without any hit were thinned out: in the full panel of roughly 79,000, 15% have a hit.
I'd appreciate it if you could supply growth inhibition values for the items below.
Numeric answer only, unit % assumed.

Fill in reported growth inhibition for this entry: COc1ccc([Se][Se]c2ccc(OC)cc2OC)c(OC)c1
12

Fill in reported growth inhibition for this entry: COC1(O[C@H]2CC[C@H]3[C@@H]4CCC5=CC(=O)CC[C@]5(C)[C@H]4CC[C@]23C)CCCCC1
-25

Fill in reported growth inhibition for this entry: NC(=S)C1=C(N)Oc2c(c(=O)oc3ccccc23)C1c1ccc(Br)cc1 (stereo not given)
-2

Fill in reported growth inhibition for this entry: NC[CH2][Sn]([c]1ccccc1)([CH]1CCCCC1)[CH]1CCCCC1
100

Fill in reported growth inhibition for this entry: COC1CC(C)C(OC)C2=CC(=O)C=C(NC(=O)/C(C)=C/C=C\C(C)C(OC(N)=O)/C(C)=C\C(C)C1OC)C2=O (stereo not given)
97

----------
I'd appreciate it if you could supply growth inhibition values for the items below.
# EXPERIMENT SUMMARY: NCI Yeast Anticancer Drug Screen. Data for the bub3 strain (AID 167)
# CONDITION NOTES: S. cerevisiae bub3 mutant strain, at 50.0 µM, hits give high values
The panel holds about 79,000 compounds, 15% with a hit somewhere; the sample as a whole holds those more often.
Numeric answer only, unit % assumed.

Fill in reported growth inhibition for this entry: COP(=O)(OC)N1CCCCC1
22

Fill in reported growth inhibition for this entry: O=[N+]([O-])c1ccc(/C=N\NP(Br)(c2ccccc2)(c2ccccc2)c2ccccc2)cc1
-2.5

Fill in reported growth inhibition for this entry: COC(=O)c1nc(-c2ccc3c(n2)C(=O)C(N)=C(OC)C3=O)c(N)c(-c2ccc(OC)c(OC)c2O)c1C
23.2

Fill in reported growth inhibition for this entry: N#CS.N=C=S.N=C=S.[Cu+2].[NH2-].[NH2-].[NH2-].[NH2-].c1ccc2ncccc2c1
-9.6

Fill in reported growth inhibition for this entry: O=C(C[n+]1ccccc1)C1CCc2ccccc2C1 (stereo unspecified)
-21.1

Fill in reported growth inhibition for this entry: [Se]=P(N1CCCCC1)(N1CCCCC1)N1CCCCC1
11.4

----------
# EXPERIMENT SUMMARY: NCI Yeast Anticancer Drug Screen. Data for the bub3 strain (AID 167)
# CONDITION NOTES: S. cerevisiae bub3 mutant strain, at 5.0 µM (retest, dose inferred, filed as 0.5), hits give high values
Compounds without any hit were thinned out: in the full panel of roughly 79,000, 15% have a hit.
MEASURED ATTRIBUTE: growth inhibition (%)
Numeric answer only, unit % assumed.

Fill in reported growth inhibition for this entry: CC(=O)NC1=C(N(CCCl)CCCl)C(=O)c2ccccc2C1=O
23

Fill in reported growth inhibition for this entry: C[C@]12CC[C@H]3[C@@H](CCC4=CC(=O)CC[C@@H]43)[C@@H]1CC[C@@H]2OC(=O)N(CCCl)N=O
72

Fill in reported growth inhibition for this entry: C[AsH](C)CC[AsH](C)C.C[AsH](C)CC[AsH](C)C.C[AsH](C)CC[AsH](C)C.[Ni]
68

Fill in reported growth inhibition for this entry: CCC[CH2][Sn]([CH2]CCC)[S]CC(N)C(=O)O (stereo unspecified)
80

Fill in reported growth inhibition for this entry: CCN1CCC(O)(c2ccc(O)cc2)C(C(=O)c2ccc(O)cc2)C1 (stereo unspecified)
-9

Fill in reported growth inhibition for this entry: O=C1C(CCl)(CCl)CCC12CNC(Cl)(Cl)C2 (stereo unspecified)
-3

Fill in reported growth inhibition for this entry: CC(=O)[O][Sn]([CH3])([CH3])[c]1ccccc1
-6

Fill in reported growth inhibition for this entry: NC(=O)c1cc([N+](=O)[O-])c(Cl)c([N+](=O)[O-])c1Cl
66

Fill in reported growth inhibition for this entry: O=[n+]1c2ccccc2n([O-])c2ccccc21
0

Fill in reported growth inhibition for this entry: Nc1ccccc1C(=O)c1ccccc1
0

Fill in reported growth inhibition for this entry: O=c1[nH]c2ccccc2n1C1CCN(CCCC(c2ccc(F)cc2)c2ccc(F)cc2)CC1
-2

Fill in reported growth inhibition for this entry: Cc1ccc(OP(=O)(Oc2ccc(C)cc2)Oc2ccc(C)cc2)cc1.Cc1ccc(OP(=O)(Oc2ccc(C)cc2)Oc2ccc(C)cc2)cc1.Cc1ccc(OP(=O)(Oc2ccc(C)cc2)Oc2ccc(C)cc2)cc1.Cc1ccc(OP(=O)(Oc2ccc(C)cc2)Oc2cccc(C)c2)cc1.[Cd+2].[O-][Cl+3]([O-])([O-])O
10

Fill in reported growth inhibition for this entry: COC12C(COC(N)=O)C3=C(C(=O)C(C)=C(N)C3=O)N1CC1C2N1C (stereo unspecified)
5

Fill in reported growth inhibition for this entry: NC(=O)c1cc([N+](=O)[O-])c(Cl)c([N+](=O)[O-])c1
49

Fill in reported growth inhibition for this entry: COc1ccc(O)c(/C=C/[N+](=O)[O-])c1
41

Fill in reported growth inhibition for this entry: CC1(OO)CCC2CC1C2(C)C (stereo unspecified)
-1

Fill in reported growth inhibition for this entry: COC(CNS(=O)(=O)c1ccccc1)[CH2][Hg][O]C(C)=O (stereo unspecified)
2

Fill in reported growth inhibition for this entry: CC1=C(O)C(=O)C=C2C1=CC=C1[C@@]2(C)CC[C@@]2(C)[C@@H]3C[C@](C)(C(=O)O)CC[C@]3(C)CC[C@]12C
95

Fill in reported growth inhibition for this entry: NC(=O)Nc1ccc([As](Sc2ccccc2C(=O)O)Sc2ccccc2C(=O)O)cc1
-8

Fill in reported growth inhibition for this entry: O=NN(CC(=O)O)c1ncccn1
-2

Fill in reported growth inhibition for this entry: ClC(CN1CCCCC1)C(Cl)c1ccccc1 (stereo unspecified)
6

Fill in reported growth inhibition for this entry: Cc1ccc(N=P(c2ccccc2)(c2ccccc2)c2ccccc2)cc1.[Br][Hg][Br]
98

Fill in reported growth inhibition for this entry: COC1CC(C)C(OC)C2=CC(=O)C=C(NC(=O)/C(C)=C/C=C\C(C)C(OC(N)=O)/C(C)=C\C(C)C1OC)C2=O (stereo unspecified)
97

Fill in reported growth inhibition for this entry: CCC[CH2][Sn]([CH2]CCC)([O]C(=O)CCC(C)=O)[O]C(=O)CCC(C)=O
89

Fill in reported growth inhibition for this entry: O=C1C(Cl)=C(Cl)C(=O)c2ccccc21
98

Fill in reported growth inhibition for this entry: [Cl][Sn]([c]1ccccc1)([c]1ccccc1)[c]1ccccc1
100

Fill in reported growth inhibition for this entry: O=C(NCC1(O)N=C(c2ccc(F)cc2)c2ccsc2-n2cccc21)c1ccc(Cl)cc1Cl (stereo unspecified)
9

Fill in reported growth inhibition for this entry: Cc1sc(Cc2ccccc2)nc1-c1ccc(N=Cc2ccc(N(CCCl)CCCl)cc2)cc1
2

Fill in reported growth inhibition for this entry: CC1CCCC[N-]1.CC1CCCC[N-]1.N#C[S-].N#C[S-].[Cd] (stereo unspecified)
10

Fill in reported growth inhibition for this entry: [I][Hg][CH2]C1OCCOC1[CH2][Hg][I] (stereo unspecified)
-8

Fill in reported growth inhibition for this entry: Cc1cc(N(CCCl)CCCl)ccc1C1N(Cc2ccc(N(CCCl)CCCl)cc2Cl)CCCN1Cc1ccc(N(CCCl)CCCl)cc1Cl
74

Fill in reported growth inhibition for this entry: CC(=O)OC1=CC2=CC[C@H]3[C@@H]4CCC(=O)[C@@]4(C)CC(=O)[C@]3(S)[C@@]2(C)CC1
-8

Fill in reported growth inhibition for this entry: CCC[CH2][Sn]1([CH2]CCC)[O]CC(C)[O]1 (stereo unspecified)
48

Fill in reported growth inhibition for this entry: O=C1CCC(=O)N1SC(Cl)(Cl)Cl
-12

Fill in reported growth inhibition for this entry: CCCCCCCCN1CCN(CCCCCCCC)C2CCCCC21 (stereo unspecified) (tested in a mixture with another compound)
20

Fill in reported growth inhibition for this entry: Cc1c(=O)n(O)c2ccccc2[n+]1[O-]
1

Fill in reported growth inhibition for this entry: COc1ccccc1[As]=[As]c1ccccc1OC (stereo unspecified)
85

Fill in reported growth inhibition for this entry: O=C(OCC(CCl)OC(=O)C(Cl)(Cl)Cl)C(Cl)(Cl)Cl (stereo unspecified)
1

Fill in reported growth inhibition for this entry: CC1(C)CC2(c3ccccc3)CC(c3ccccc3)C1C(C(=O)O)C2C(=O)O (stereo unspecified)
35

Fill in reported growth inhibition for this entry: Sc1ccccc1.[Ag]
56

Fill in reported growth inhibition for this entry: COc1cc(/C=C(/C)[N+](=O)[O-])c([N+](=O)[O-])cc1OC
0

Just for reference, PubChem BioAssay (NCI) is where these values come from.
